This collection of values is drawn from patent US10766917B2.

# pIC50 annotations
Test system: MDA-MB-231
Assay: In vitro inhibition, CellTiter-Glo (CTG) assay
Type: cell-based
Details: 72 hr exposure
pIC50: −log10 of the molar value.

Compound	pIC50
COC(=O)[C@H](CCCCNP1(=O)OC[C@H]2O[C@@H](n3ccc(N)nc3=O)C(F)(F)[C@@H]2O1)NC(=O)OC(C)(C)C (single isomer, unassigned) [106 (diastereomer 2)]	4.00 to 5.00
CC(C)C(=O)OC[C@@H](C)NP1(=O)OC[C@H]2O[C@@H](n3ccc(N)nc3=O)C(F)(F)[C@@H]2O1 (single isomer, unassigned) [105 (diastereomer 2)]	4.00 to 5.00

Lab note: measured pIC50 of CC(C)OP1(=O)OC[C@H]2O[C@@H](n3ccc(N)nc3=O)C(F)(F)[C@@H]2O1 (single isomer, unassigned) [Compound 102 (diastereomer 1)] was 4.00 to 5.00

Lab note: measured pIC50 of CCCC(CCC)C(=O)Nc1ccn([C@@H]2O[C@@H]3COP(=O)(N[C@H](C)C(=O)OC(C)C)O[C@H]3C2(F)F)c(=O)n1 (single isomer, unassigned) [116 (diastereomer 2)] was 4.00 to 5.00

Lab note: measured pIC50 of CC(C)(C)SSCCOP(=O)(NCc1ccccc1)OC[C@H]1O[C@@H](n2ccc(N)nc2=O)C(F)(F)[C@@H]1O (single isomer, unassigned) [111 (diastereomer 2)] was 4.00 to 5.00

Lab note: measured pIC50 of Cn1c(COP(=O)(NCc2ccccc2)OC[C@H]2O[C@@H](n3ccc(N)nc3=O)C(F)(F)[C@@H]2O)cnc1[N+](=O)[O-] (single isomer, unassigned) [112 (diastereomer 2)] was 4.00 to 5.00

Lab note: measured pIC50 of CCOC(=O)COP(=O)(N[C@@H](CC(C)C)C(=O)OCC)OC[C@H]1O[C@@H](n2ccc(N)nc2=O)C(F)(F)[C@@H]1O (single isomer, unassigned) [108 (diastereomer 2)] was 5.00 to 6.00

Lab note: measured pIC50 of CC(C)(C)C(=O)SCCOP1(=O)OC[C@H]2O[C@@H](n3ccc(N)nc3=O)C(F)(F)[C@@H]2O1 (single isomer, unassigned) [104 (diastereomer 2)] was 5.00 to 6.00

Lab note: measured pIC50 of CC(C)OC(=O)[C@@H](C)NP1(=O)OC[C@H]2O[C@@H](n3ccc(N)nc3=O)C(F)(F)[C@@H]2O1 (single isomer, unassigned) [101 (diastereomer 2)] was 4.00 to 5.00

Lab note: measured pIC50 of CC(C)OC(=O)[C@H](C)NP1(=O)OC[C@H]2O[C@@H](n3ccc(N)nc3=O)C(F)(F)[C@@H]2O1 (single isomer, unassigned) [103 (diastereomer 2)] was 4.00 to 5.00

----------
# IC50 annotations
Test system: CFPAC-1
Experiment: In vitro inhibition, CellTiter-Glo (CTG) assay
Assay type: cell-based
Conditions: 72 hr exposure

Check out these entries, answers already filled in.
Compound	Tgt	Result
CC(C)C(=O)OC[C@@H](C)NP1(=O)OC[C@H]2O[C@@H](n3ccc(N)nc3=O)C(F)(F)[C@@H]2O1 (single isomer, unassigned) [105 (diastereomer 2)]	CFPAC-1	1 to 10 µM
CC(C)OC(=O)[C@H](C)NP1(=O)OC[C@H]2O[C@@H](n3ccc(N)nc3=O)C(F)(F)[C@@H]2O1 (single isomer, unassigned) [103 (diastereomer 2)]	CFPAC-1	1 to 10 µM
CC(C)(C)SSCCOP(=O)(NCc1ccccc1)OC[C@H]1O[C@@H](n2ccc(N)nc2=O)C(F)(F)[C@@H]1O (single isomer, unassigned) [111 (diastereomer 2)]	CFPAC-1	< 1 µM
CCCC(CCC)C(=O)Nc1ccn([C@@H]2O[C@@H]3COP(=O)(N[C@H](C)C(=O)OC(C)C)O[C@H]3C2(F)F)c(=O)n1 (single isomer, unassigned) [116 (diastereomer 2)]	CFPAC-1	10 to 100 µM
CC(C)(C)C(=O)SCCOP1(=O)OC[C@H]2O[C@@H](n3ccc(N)nc3=O)C(F)(F)[C@@H]2O1 (single isomer, unassigned) [104 (diastereomer 2)]	CFPAC-1	< 1 µM

Lab note: measured IC50 of CC(C)OP1(=O)OC[C@H]2O[C@@H](n3ccc(N)nc3=O)C(F)(F)[C@@H]2O1 (single isomer, unassigned) [102 (diastereomer 2)] was 1 to 10 µM

Lab note: measured IC50 of CC(C)OC(=O)[C@@H](C)NP1(=O)OC[C@H]2O[C@@H](n3ccc(N)nc3=O)C(F)(F)[C@@H]2O1 (single isomer, unassigned) [101 (diastereomer 1)] was < 1 µM

Lab note: measured IC50 of CC(C)(C)SSCCOP(=O)(NCc1ccccc1)OC[C@H]1O[C@@H](n2ccc(N)nc2=O)C(F)(F)[C@@H]1O (single isomer, unassigned) [111 (diastereomer 1)] was 10 to 100 µM

Lab note: measured IC50 of COC(=O)[C@H](CCCCNP1(=O)OC[C@H]2O[C@@H](n3ccc(N)nc3=O)C(F)(F)[C@@H]2O1)NC(=O)OC(C)(C)C (single isomer, unassigned) [106 (diastereomer 2)] was 1 to 10 µM

Lab note: measured IC50 of CCOC(=O)COP(=O)(N[C@@H](CC(C)C)C(=O)OCC)OC[C@H]1O[C@@H](n2ccc(N)nc2=O)C(F)(F)[C@@H]1O (single isomer, unassigned) [108 (diastereomer 2)] was < 1 µM

Lab note: measured IC50 of Cn1c(COP(=O)(NCc2ccccc2)OC[C@H]2O[C@@H](n3ccc(N)nc3=O)C(F)(F)[C@@H]2O)cnc1[N+](=O)[O-] (single isomer, unassigned) [112 (diastereomer 2)] was 1 to 10 µM

Lab note: measured IC50 of Cn1c(COP(=O)(NCc2ccccc2)OC[C@H]2O[C@@H](n3ccc(N)nc3=O)C(F)(F)[C@@H]2O)cnc1[N+](=O)[O-] (single isomer, unassigned) [112 (diastereomer 1)] was 10 to 100 µM
